study_system: T1, NHERF3_4, Q5T2W1
T1 sequence (Q5T2W1 373-468, limits assumed, looked up): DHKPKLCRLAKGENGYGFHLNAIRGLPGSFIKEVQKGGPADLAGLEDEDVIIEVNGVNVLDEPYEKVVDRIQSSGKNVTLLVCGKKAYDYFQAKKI
assay: holdup assay
Design: key: below the threshold = too weak to quantify, mostly under pKd 3.1 to 4
test_conditions: plain residues with an end cap or a label only (N-terminal biotin on a linker: ado-ado)
measured_property: pKd
Lab note: jot down the number only; don't add units.

Reference set, count: 3
binder: LPHGHSTTRV [NLGN4X, Q8N0W4]
quantitative_readout: 3.85
--
binder: GQEEQVTTRL [TRPC5, Q9UL62]
quantitative_readout: 5.33
--
binder: AKPSRISTVV [IQSEC2, Q5JU85]
quantitative_readout: 3.73

The record that follows has no pKd shown yet.
Form field pKd, entry GNSVLKSTQF [SLC22A12, Q96S37] : 5.45

The reported numbers originate from paper PMC9482650.
